target: Recombinant STAT3 protein (STAT3 (G127-I722)) (Homo sapiens); construct: Recombinant STAT3 protein (STAT3 (G127-I722)); assay: STAT3 Fluorescence Polarization (FP) Assay; format: binding; details: STAT3 (G127-I722) 25 nM, probe 5-FAM-GpYLPQTV-NH2 2 nM, 45-minute incubation; read-out: STAT3 (FP assay IC50 class)
Sequence (P40763 127-722): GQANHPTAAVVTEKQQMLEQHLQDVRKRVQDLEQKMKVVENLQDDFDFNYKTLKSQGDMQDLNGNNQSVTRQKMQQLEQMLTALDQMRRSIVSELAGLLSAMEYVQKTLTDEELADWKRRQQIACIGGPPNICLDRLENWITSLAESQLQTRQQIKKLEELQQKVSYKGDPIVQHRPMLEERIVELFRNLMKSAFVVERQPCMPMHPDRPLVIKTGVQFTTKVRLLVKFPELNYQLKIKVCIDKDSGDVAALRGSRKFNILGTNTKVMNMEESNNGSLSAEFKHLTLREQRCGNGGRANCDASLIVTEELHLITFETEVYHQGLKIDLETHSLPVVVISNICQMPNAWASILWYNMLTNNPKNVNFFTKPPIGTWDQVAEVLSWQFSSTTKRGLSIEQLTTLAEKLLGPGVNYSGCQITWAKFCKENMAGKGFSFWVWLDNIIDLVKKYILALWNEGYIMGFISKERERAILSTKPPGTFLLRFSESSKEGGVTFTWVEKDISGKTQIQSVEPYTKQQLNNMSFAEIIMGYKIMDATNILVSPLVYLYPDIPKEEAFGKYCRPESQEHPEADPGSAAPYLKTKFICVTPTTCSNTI
pIC50: −log10 of the molar value.
outcome-measure: pIC50

compound	system-tested	outcome-measure	measurement
O=C(N[C@H]1C/C=C\C[C@@H]2[C@H](O)C[C@@H](C(=O)N3CC(C(=O)N4CCOCC4)C3)N2C1=O)c1cc2cc(C(F)(F)P(=O)(O)O)ccc2s1 [Compound 730]	Recombinant STAT3 protein (STAT3 (G127-I722)) (Homo sapiens)	pIC50	5.00 to 6.00
CNC(=O)N1CC[C@@H](NC(=O)[C@@H]2CC[C@@H]3CCCC[C@H](NC(=O)c4cc5cc(C(F)P(=O)(O)O)ccc5s4)C(=O)N32)C1 (stereo partly drawn) [Compound 530]	Recombinant STAT3 protein (STAT3 (G127-I722)) (Homo sapiens)	pIC50	6.00 to 7.00
N#Cc1ccnc(C2CN(C(=O)[C@@H]3CC[C@@H]4CCC[C@H](NC(=O)c5cc6cc(CP(=O)(O)O)ccc6s5)C(=O)N43)C2)n1 [Compound 660]	Recombinant STAT3 protein (STAT3 (G127-I722)) (Homo sapiens)	pIC50	5.00 to 6.00
